pIC50: −log10 of the molar value.
Here's a roundup of pIC50 values tested on Coagulation factor XI (Homo sapiens, UniProt P03951), taken from various published works.
Experimental endpoint: pIC50

Compound: C[C@@H]1Cc2ccc(Cl)cc2-c2cc(=O)n([C@@H](C[C@@H]3CCCCO3)C(=O)Nc3ccc(C(N)=O)cc3)cc2[C@H](C)O1 (single isomer, unassigned)
Assayed target: Coagulation factor XI (Homo sapiens, UniProt P03951)
Experimental endpoint: pIC50
Recorded number: 9.10

A = Nc1c(C(=O)N2CCC[C@@]3(C2)OC(=O)Nc2ccc(Cl)c(F)c23)cnn1Cc1cccnc1
B = CC(c1cnc(N2CC[C@H]2CN2C[C@@H](O)[C@H](O)C2)nc1)n1cc(NC(=O)c2cncc(-c3c(C(F)F)ccc(Cl)c3F)n2)cn1 (stereo partly drawn)
Two entries are listed, A and B . Which one carries the higher pIC50? Answer by stating the label of the chosen item. A
(A: 6.38, B: 5.20)

* * *

Here's a roundup of IC50 values tested on UniProtKB P03951, taken from various published works.
Experimental endpoint: IC50 (nM)

Compound: C[C@@H]1Cc2ccc(Cl)cc2-c2cc(=O)n([C@@H](C[C@@H]3CCCCO3)C(=O)Nc3ccc(C(N)=O)c(F)c3)cc2[C@H](C)O1 (single isomer, unassigned)
Recorded number: 2.5

1 = CO[C@H](C[C@@H](C(=O)Nc1ccc(C(N)=O)cc1)n1cc2c(cc1=O)-c1cc(Cl)ccc1C[C@@H](C)OC2)C(F)F (single isomer, unassigned)
2 = O=C(Nc1cnn([C@H](CO)c2cnc(N3CCC3)nc2)c1)c1cncc(-c2c(C(F)F)ccc(Cl)c2F)n1 (single isomer, unassigned)
3 = N#Cc1ccc(Cl)cc1-c1cc(=O)n(C(Cc2cocn2)C(=O)Nc2ccc(C(N)=O)nc2)cc1Cl (stereo not drawn)
In this exercise, place the 3 compounds in ascending sequence of their recorded IC50. When ranking, write the labels in the order the request describes. 1, 3, 2

I = Nc1c(C(=O)N2CCC[C@@]3(C2)OC(=O)Nc2ccc(Cl)c(F)c23)cnn1-c1ccccc1OC1CCC1
II = COC(=O)Nc1ccc(-c2cnc(C(CC3CC3)c3ccc(-c4cc(Cl)ccc4-n4cnnc4)c[n+]3[O-])[nH]2)cc1 (racemic)
Two entries are listed, I and II . Which one carries the higher IC50? Answer by stating the label of the chosen item. I
(I: 1290 nM, II: 12.9 nM)

* * *

Here's a roundup of IC50 values tested on Coagulation factor XI (Homo sapiens, UniProt P03951), taken from various published works.
Experimental endpoint: IC50 (µM)

# example entries with known answers
Compound: Cc1ncc(-c2c(C(F)F)ccc(Cl)c2F)nc1C(=O)Nc1cnn(C(C)c2ncc(N3C[C@H]4C[C@H]4C3=O)c(C)c2N)c1 (single isomer, unassigned)
Measurement unit: µM
IC50: 7.57
--
Compound: Cc1nc(N2C[C@H]3C[C@H]3C2=O)ncc1C1(n2cc(NC(=O)c3nc(-c4c(C(F)F)ccc(Cl)c4F)cnc3C)cn2)CC1
Measurement unit: µM
IC50: 1.28
--
Compound: N#Cc1ccc(Cl)cc1-c1cc(=O)n(C(Cc2ccccn2)C(=O)Nc2ccc(C(N)=O)nc2)cc1OC(F)F (stereo not shown)
Measurement unit: µM
IC50: 0.16
--
Compound: O=C(Nc1cnn(C2CCc3cc(N4CCC4)ncc32)c1)c1cncc(-c2c(C(F)F)ccc(Cl)c2F)n1 (single isomer, unassigned)
Measurement unit: µM
IC50: 3.58
--
Compound: Nc1cc(-c2cccc(C(F)(F)F)c2)nn1CC(=O)N1CC[C@@]2(C1)OC(=O)Nc1ccc(Cl)c(F)c12
Measurement unit: µM
IC50: 2.71
--
Compound: COc1cn(C(Cc2cocn2)C(=O)Nc2ccc(C(N)=O)nc2)c(=O)cc1-c1cc(Cl)ccc1C#N (stereo not shown)
Measurement unit: µM
IC50: 0.048

A = [2H]c1nnnn1-c1ccc(Cl)c(F)c1C1=CC(=O)N2[C@@H](CC[C@@H]2c2ncc(-c3ccnc(C([2H])([2H])O)c3F)[nH]2)C1 (stereo in doubt)
B = O=C(Nc1ccc(-c2nc[nH]n2)cc1)[C@@H]1CCC2CC(c3c(-n4cnnn4)ccc(Cl)c3F)=CC(=O)N21 (mixture of isomers)
Two entries are listed, A and B . Which one carries the higher IC50? Answer by stating the label of the chosen item. B
